assay.system: TDP-43 (Homo sapiens, UniProt Q13148 1-414)
Sequence (Q13148 whole entry): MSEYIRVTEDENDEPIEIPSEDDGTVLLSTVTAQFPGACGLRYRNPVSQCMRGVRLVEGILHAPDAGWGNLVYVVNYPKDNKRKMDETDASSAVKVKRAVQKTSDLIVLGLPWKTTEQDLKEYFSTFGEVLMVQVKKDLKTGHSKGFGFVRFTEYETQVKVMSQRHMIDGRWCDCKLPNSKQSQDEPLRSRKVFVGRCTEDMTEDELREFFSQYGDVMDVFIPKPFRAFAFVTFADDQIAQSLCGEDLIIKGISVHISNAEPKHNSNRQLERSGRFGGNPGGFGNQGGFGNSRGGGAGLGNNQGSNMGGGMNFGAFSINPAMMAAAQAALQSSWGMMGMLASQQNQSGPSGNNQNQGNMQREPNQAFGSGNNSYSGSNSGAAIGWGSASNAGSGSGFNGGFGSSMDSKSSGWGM
experimental.protocol: RNA Bind-n-Seq with designed 260-mer pool; 25 mM Tris-HCl, 150 mM KCl, 3 mM MgCl2, BSA (printed 500 mg/mL), 20 units/mL SUPERase IN; pH not stated; 500 nM RNA pool, 1 h, 4 C; TDP-43 5, 50, 500 nM; high values mean tight binding
test.conditions: protein: recombinant; tags: SBP (GST cleaved off with PreScission; pGEX-GST-SBP)
In all, about 9,900 sequences were measured (“r (bound/input frequency ratio)”: median about 0.7, highest 2% from about 6.5 on). What follows is part of a selection rich in the highest values, with near analogues and random picks from the rest.
property: binding signal

- binder: "ENSMUSG00000031028.287|Tub (ssRNA) RNA: GGGAGUUCUACAGUCCGACGAUCGCUUCGAUAUCCGCAUGCUAGGCUGGAUUGAUGUAAAUGGAAGUAGUACUUUAAGAAAGCUCUAGAUUUCCCAGGUUGGACACUCGACGAAAGGCACACCUGCUGCAGCAGGUUCUGACACACCUGAGCCAUACAUUGCCAUCAGAGAACCCUCAGCGAGGUAGCCUUUGUUUACAGUCUAGUUUCUAGAGGGCAGUAGGACUUCCAUGCUGGGGCUGGCCUAUCUCCUGAUGAAAGAUUACAGUGCCAUCUCCUUCCCAUAGUUCUGUGUCUGCCCUCCCUCUUGCGGUCGCACUAGUGUGGAAUUCUCGGGUGUCAAGG"
  property: "binding signal"
  measured.result: "0.856 R (bound/input frequency ratio)"
- binder: "ENSMUSG00000028439.73|Fam219a|190:194 (ssRNA) RNA: GGGAGUUCUACAGUCCGACGAUCGCUUCGAUAUCCGCAUGCUAGUAAGCGUUGGGUGAAGGGAUCACAGGGCCGGAAGGUUGGCCCCAGCCAGUGAAGCCAUGAAUCCCCCCCAAGCCCGGCUUGGAAAGGAAGGAAAGGGGUUUUGAGAAGAAAAGGAUCCAAGCAAUGGGGGCAGUUCUCACACCUCAGAGCCCCUCUCCCCAAACCCUGUGCCAGCCCAUAUACCUAUUACACAUUUCCCCUCAUCUCCAGAUGGGAAGCCUGGCAGCGCUGUCCAAAGGGAUACUGUCUCUCCAUUAGACUCUUGCGGUCGCACUAGUGUGGAAUUCUCGGGUGUCAAGG"
  property: "binding signal"
  measured.result: "0.449 R (bound/input frequency ratio)"
